Target: Tyrosine-protein kinase JAK2 (Homo sapiens);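 note: mean percent inhibition of JAK2 activity, from the GSK PKIS kinase panel screen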
Conditions: at 0.1 µM
PROPERTY_MEASURED: inhibition (%)

{"columns": ["STRUCTURE_STRING", "PROPERTY_MEASURED", "MEASUREMENT"],
 "data": [
  ["O=C1NC(=O)C(c2ccccc2Cl)=C1Nc1cccc(O)c1", "inhibition", 2.97],
  ["NC(=O)c1cccc(Nc2nccc(Nc3cccc4[nH]ncc34)n2)c1", "inhibition", 6.75],
  ["[O-][S+]1CCN(Cc2ccc(-c3ccc4ncnc(Nc5ccc(OCc6ccccc6)c(F)c5)c4c3)o2)CC1", "inhibition", 0.4],
  ["Cc1ccc(NC(=O)c2ccnc(N3CCCC3)c2)cc1-c1ccc(C(=O)NCC2CC2)cc1", "inhibition", 1.37],
  ["COc1cc2ncn(-c3cc(O[C@H](C)c4ccccc4Cl)c(C(N)=O)s3)c2cc1OC", "inhibition", 1.66],
  ["O=C(Nc1n[nH]c2nc(-c3ccco3)c(Br)cc12)C1CC1", "inhibition", 1.5],
  ["CCn1c(-c2nonc2N)nc2c(N3CCCC3)nccc21", "inhibition", -0.66],
  ["Cc1nnc(-c2ccc(C)c(-c3ccc(C(=O)Nc4cccc(C#N)c4)cc3)c2)o1", "inhibition", -0.14],
  ["CC(C)=Cc1cccc2c1/C(=N/Nc1ccc(S(N)(=O)=O)cc1)C(=O)N2", "inhibition", 2.18],
  ["CS(=O)(=O)CCNCc1ccc(-c2ccc3ncnc(Nc4ccc(OCc5cccc(F)c5)c(C(F)(F)F)c4)c3c2)o1", "inhibition", 0.47],
  ["CCn1c(-c2nonc2N)nc2cncc(C(=O)N3CC[C@H](N)C3)c21", "inhibition", 0.61],
  ["COc1ccc(-c2coc3ncnc(N)c23)cc1", "inhibition", 1.71],
  ["CCN1CCC(CC(=O)Nc2n[nH]c3nc(-c4cccs4)c(Br)cc23)CC1", "inhibition", -1.09]
]}
